molecular target: Kappa-type opioid receptor (Homo sapiens); assay: Agonist activity at human kappa opioid receptor tranfected in U2OS cells co-transfected with arrestin2-EFC assessed as induction of beta arrestin2 recruitment incubated for 90 mins by Synergy HT luminometer; assay type: functional, cell-based
Sequence (P41145 whole entry): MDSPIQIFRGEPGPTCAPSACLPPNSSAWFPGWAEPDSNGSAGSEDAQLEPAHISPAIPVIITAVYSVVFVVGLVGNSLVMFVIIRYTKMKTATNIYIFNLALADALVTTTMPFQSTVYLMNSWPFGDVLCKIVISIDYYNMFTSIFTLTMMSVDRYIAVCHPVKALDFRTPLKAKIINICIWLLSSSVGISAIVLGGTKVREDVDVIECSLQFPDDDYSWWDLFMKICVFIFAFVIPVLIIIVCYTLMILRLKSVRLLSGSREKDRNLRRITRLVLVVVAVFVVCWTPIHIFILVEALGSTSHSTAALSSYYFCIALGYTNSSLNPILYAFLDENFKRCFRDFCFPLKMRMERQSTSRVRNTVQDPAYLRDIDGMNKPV
Here, each record is paired with measured pEC50 data.
Keep in mind that pEC50 stands for -log10 of concentration in molar terms.

Q: Answer with the recorded pEC50 for the compound listed here: Cc1ccc(CCc2nnc(-c3ccccn3)n2Cc2ccccc2)cc1C(F)(F)F
Result: 5.17

Q: Answer with the recorded pEC50 for the compound listed here: Cc1ccc(CCc2nnc(-c3ccccn3)n2Cc2nccs2)cc1C(F)(F)F
Result: 5.89

###

target: Kappa-type opioid receptor (Homo sapiens); assay: Agonist activity at human kappa opioid receptor tranfected in U2OS cells co-transfected with arrestin2-EFC assessed as induction of beta arrestin2 recruitment by measuring maximum efficacy incubated for 90 mins by Synergy HT luminometer relative to […]; type: functional, cell-based; settings: filed as agonist
Here, each record is paired with measured Emax data.
Reply with just the number (in %).

Q: Answer with the recorded Emax for the molecule listed here: Cc1ccc(CCc2nnc(-c3ccccn3)n2Cc2cccnc2)cc1C(F)(F)F
Result: 119

Q: Answer with the recorded Emax for the molecule listed here: Cc1ccc(CCc2nnc(-c3ccccn3)n2Cc2ccccc2)cc1C(F)(F)F
Result: 183

Q: Answer with the recorded Emax for the molecule listed here: Clc1ccc(CCc2nnc(-c3ccccn3)n2Cc2cccs2)cc1
Result: 137

Q: Answer with the recorded Emax for the molecule listed here: Clc1ccc(CCc2nnc(-c3ccccn3)n2Cc2cccs2)c(Cl)c1
Result: 154

Q: Answer with the recorded Emax for the molecule listed here: Brc1ccc(CCc2nnc(-c3ccccn3)n2Cc2cccs2)cc1
Result: 93

Q: Answer with the recorded Emax for the molecule listed here: Cc1ccc(CCc2nnc(-c3ccccn3)n2Cc2cccs2)cc1C(F)(F)F
Result: 102

Q: Answer with the recorded Emax for the molecule listed here: Cc1ccc(CCc2nnc(-c3ncccn3)n2Cc2cccs2)cc1C(F)(F)F
Result: 150

Q: Answer with the recorded Emax for the molecule listed here: Fc1ccc(CCc2nnc(-c3ccccn3)n2Cc2cccs2)cc1
Result: 97

Q: Answer with the recorded Emax for the molecule listed here: Cc1ccc(CCc2nnc(-c3ncccc3C)n2Cc2cccs2)cc1C(F)(F)F
Result: 118

Q: Answer with the recorded Emax for the molecule listed here: Cc1ccc(CCc2nnc(-c3nccn3C)n2Cc2cccs2)cc1C(F)(F)F
Result: 132

Q: Answer with the recorded Emax for the molecule listed here: Cc1ccc(CCc2nnc(-c3ccccn3)n2Cc2ccccn2)cc1C(F)(F)F
Result: 127

Q: Answer with the recorded Emax for the molecule listed here: Brc1cccc(CCc2nnc(-c3ccccn3)n2Cc2cccs2)c1
Result: 118

Q: Answer with the recorded Emax for the molecule listed here: Cc1ccc(CCc2nnc(-c3ccccn3)n2Cc2nccs2)cc1C(F)(F)F
Result: 95

###

test: Metabolic stability in mouse liver microsome assessed as half life at 1 uM by LC-MS/MS analysis; type: ADME; conditions: liver microsomes
Here, each record is paired with measured log10 half-life at 1 µM data.
# values: log10(half-life at 1 µM), units min

- compound: "OC(Cc1nnc(-c2ccccn2)n1Cc1cccs1)c1ccccc1 (stereo unspecified)"
  log10 half-life at 1 µM: 0.41
- compound: "Cc1ccc(CCc2nnc(-c3ccccn3)n2Cc2cccs2)cc1C(F)(F)F"
  log10 half-life at 1 µM: 0.18
- compound: "Cc1ccc(/C=C/c2nnc(-c3ccccn3)n2Cc2cccs2)cc1C(F)(F)F"
  log10 half-life at 1 µM: 1.48
- compound: "c1ccc(CCc2nnc(-c3ccccn3)n2Cc2cccs2)cc1"
  log10 half-life at 1 µM: 0.20
- compound: "Cc1ccc(CCc2nnc(-c3ccccn3)n2Cc2ccccc2)cc1C(F)(F)F"
  log10 half-life at 1 µM: 0.11

Q: Answer with the recorded log10 half-life at 1 µM for the compound listed here: c1ccc(-c2nnc(-c3ccccn3)n2Cc2cccs2)cc1
Result: 0.00

Q: Answer with the recorded log10 half-life at 1 µM for the compound listed here: Cc1ccc(CCc2nnc(-c3ccccn3)n2-c2ccccc2)cc1C(F)(F)F
Result: 0.00

Q: Answer with the recorded log10 half-life at 1 µM for the compound listed here: O=C(Cc1ccccc1)c1nnc(-c2ccccn2)n1Cc1ccco1
Result: 0.08

Q: Answer with the recorded log10 half-life at 1 µM for the compound listed here: FC(Cc1nnc(-c2ccccn2)n1Cc1cccs1)c1ccccc1 (stereo unspecified)
Result: -0.05

Q: Answer with the recorded log10 half-life at 1 µM for the compound listed here: Cc1ccc(CCc2nnc(-c3nccn3C)n2Cc2cccs2)cc1C(F)(F)F
Result: 0.18

Q: Answer with the recorded log10 half-life at 1 µM for the compound listed here: Cc1ccc(/C=C/c2nnc(-c3ccccn3)n2Cc2ccco2)cc1C(F)(F)F
Result: 1.51
